The measured values listed here are drawn from patent US5750530A.

Target: PAI-1 (Homo sapiens, UniProt P05121)
Sequence (P05121 24-402): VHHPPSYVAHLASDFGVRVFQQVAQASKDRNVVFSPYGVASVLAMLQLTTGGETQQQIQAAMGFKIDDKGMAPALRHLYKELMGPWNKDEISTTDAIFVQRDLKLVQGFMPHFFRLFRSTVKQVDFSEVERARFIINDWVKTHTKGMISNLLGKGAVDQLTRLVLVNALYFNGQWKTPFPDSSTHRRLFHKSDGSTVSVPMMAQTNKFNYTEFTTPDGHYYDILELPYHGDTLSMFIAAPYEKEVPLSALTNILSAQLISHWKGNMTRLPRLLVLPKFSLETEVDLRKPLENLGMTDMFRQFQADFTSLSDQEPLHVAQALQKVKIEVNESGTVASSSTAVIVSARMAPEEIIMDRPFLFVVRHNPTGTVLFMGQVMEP
Assay: biochemical
Type: biochemical
Details: 5 μm
Procedure: The present compounds have been tested in a PAI functional assay. In this assay, a compound is incubated with PAI-1 prior to addition to the tPA assay system. Inhibition of PAI-1 results in the production of plasmin from plasminogen. In turn, plasmin cleaves the chromogenic substrate S2251 (Kabi Vitrum) producing pNA (p-nitroaniline) which is detected spectrophotometrically at 405 nm (K. Nilsson et al, Fibrinolysis (1987) 1, 163-168). […]
Where a name gives a salt, the structure may show the parent alone.
Metric Name: % Inhibition

CN(C)CCSc1ccc(/C=c2\[nH]c(=O)/c(=C/c3ccc(Br)cc3)[nH]c2=O)cc1 [Compound 5480]
53%
CN(C)CCSc1ccc(/C=c2\[nH]c(=O)/c(=C/c3cccnc3)[nH]c2=O)s1 [Compound 5470.HCl]
1%
CC(C)N(CCSc1ccc(/C=c2\[nH]c(=O)/c(=C/c3ccccc3)[nH]c2=O)s1)C(C)C [Compound 5399]
23%
CN(C)CCSc1ccc(/C=c2\[nH]c(=O)/c(=C/c3cccc([N+](=O)[O-])c3)[nH]c2=O)cc1 [Compound 5422.HCl]
5%
CSc1ccc(/C=c2\[nH]c(=O)/c(=C/c3ccc(SCCN(C)C)cc3)[nH]c2=O)cc1 [Compound 5426]
25%
COc1ccc(/C=c2\[nH]c(=O)/c(=C/c3ccc(SCCN(C)C)s3)[nH]c2=O)cc1 [Compound 5464.HCl]
17%

# value lookup — system PAI-1 (Homo sapiens, UniProt P05121), readout % Inhibition, item CN(C)CCSc1ccc(/C=c2\[nH]c(=O)/c(=C/c3c4ccccc4cc4ccccc34)[nH]c2=O)s1 [Compound 5498]
15%

# value lookup — system PAI-1 (Homo sapiens, UniProt P05121), readout % Inhibition, item COc1ccc(/C=c2\[nH]c(=O)/c(=C/c3ccc(SCCN(C)C)cc3)[nH]c2=O)cc1 [Compound 5479.HCl]
62%

# value lookup — system PAI-1 (Homo sapiens, UniProt P05121), readout % Inhibition, item CN(C)CCSc1ccc(/C=c2\[nH]c(=O)/c(=C/c3cccc(OCc4ccccc4)c3)[nH]c2=O)s1 [Compound 5487]
15%

# value lookup — system PAI-1 (Homo sapiens, UniProt P05121), readout % Inhibition, item COC(=O)c1ccc(/C=c2\[nH]c(=O)/c(=C/c3ccc(SCCN(C)C)s3)[nH]c2=O)cc1 [Compound 5477.HCl]
19%

# value lookup — system PAI-1 (Homo sapiens, UniProt P05121), readout % Inhibition, item CN(C)CCSc1ccc(/C=c2\[nH]c(=O)/c(=C/CC(C)(C)C)[nH]c2=O)s1 [Compound 5502]
0%

# value lookup — system PAI-1 (Homo sapiens, UniProt P05121), readout % Inhibition, item CN(C)CCSc1ccc(/C=c2\[nH]c(=O)/c(=C/c3ccc4c(c3)OCO4)[nH]c2=O)cc1 [Compound 5491.HCl]
0%

# value lookup — system PAI-1 (Homo sapiens, UniProt P05121), readout % Inhibition, item COc1cc(/C=c2\[nH]c(=O)/c(=C/c3ccc(SCCN(C)C)cc3)[nH]c2=O)ccc1OCc1ccc([N+](=O)[O-])cc1 [Compound 5490]
6%
